# Tested on: MCF7
# assay details: Anticancer activity against 8 Gy gamma-irradiated human MCF7 cells assessed as viable cells after 48 hrs at 100 uM by SRB assay relative to control
# Format: functional
observable: fold change (FC)

- N#CC1=C(N)Oc2nc(Nc3ccc(S(N)(=O)=O)cc3)sc2C1c1ccc(Cl)cc1 (centres undefined): 0.097
- N#CC1=C(/N=C/c2ccc(Cl)cc2)Oc2nc(Nc3ccc(S(N)(=O)=O)cc3)sc2C1c1ccc(Cl)cc1 (centres undefined): 0.182
- Nc1ncnc2c1C(c1ccc(Cl)cc1)c1sc(Nc3ccc(S(N)(=O)=O)cc3)nc1O2 (centres undefined): 0.086
- NS(=O)(=O)c1ccc(Nc2nc3c(s2)C(c2ccc(Cl)cc2)c2c(nc[nH]c2=O)O3)cc1 (centres undefined): 0.04
